- STUDY_SYSTEM: T1, sortilin protein with a C-terminal 6×His-tag (Homo sapiens (Human), UniProt Q99523 78-755, directly conjugated with d2 in assay format #3 (site not stated); unlabeled and detected with d2-labeled 1C12 in assay format #10)
- T1 construct: Soluble sortilin of the HTRF assays; also called sortilin-d2; Tb-conjugated sortilin protein
- T1 sequence: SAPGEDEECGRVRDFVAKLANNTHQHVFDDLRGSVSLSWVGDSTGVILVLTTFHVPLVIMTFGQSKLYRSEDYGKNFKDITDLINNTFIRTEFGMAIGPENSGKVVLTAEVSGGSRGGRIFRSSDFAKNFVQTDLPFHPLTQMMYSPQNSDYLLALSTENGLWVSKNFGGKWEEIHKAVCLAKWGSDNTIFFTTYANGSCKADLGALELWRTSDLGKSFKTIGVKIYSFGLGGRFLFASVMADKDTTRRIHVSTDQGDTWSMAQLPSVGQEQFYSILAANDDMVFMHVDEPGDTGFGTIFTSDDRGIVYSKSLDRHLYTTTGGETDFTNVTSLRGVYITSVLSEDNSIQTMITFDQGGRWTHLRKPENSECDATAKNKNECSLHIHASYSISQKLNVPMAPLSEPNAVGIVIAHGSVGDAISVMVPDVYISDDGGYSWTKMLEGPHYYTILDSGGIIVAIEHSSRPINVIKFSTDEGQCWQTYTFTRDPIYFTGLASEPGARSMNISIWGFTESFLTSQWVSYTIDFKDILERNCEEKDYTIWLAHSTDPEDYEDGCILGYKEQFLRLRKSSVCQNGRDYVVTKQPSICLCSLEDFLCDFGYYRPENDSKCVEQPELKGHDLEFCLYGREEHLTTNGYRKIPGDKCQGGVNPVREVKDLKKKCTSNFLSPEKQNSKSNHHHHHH
- ASSAY_NAME: row HotKdNM of the drawn table: Kd of the labelled (biotinylated) peptide for sortilin, held constant in the Ki fit of assay format 10; same value in all three columns
No end group written: not given here. *: point of attachment. Biotin = O=C1N[C@H]2[C@H](CS[C@H]2CCCCC(=O)*)N1
MEASURED_ATTRIBUTE: Kd (nM)
Only the number, expressed in nM, is required.

I have this binder here, Biotin-TKCLRREAPRWDAPLRDPALRQLL (Detected through streptavidin-Tb in formats #3, #6 and #10; also called 24 amino acid-sized C-terminal peptide of PGRN; biotinylated peptide) [biotinylated PGRN peptide] , and I need its recorded Kd.
1.4
